molecular target: Thimet oligopeptidase EC 3.4.24.15 (UniProt P24155); experiment: enzyme inhibition of Thimet oligopeptidase EC 3.4.24.15 (published methods, Dauch 1991a,b); format: biochemical
quantity.kind: enzyme inhibition EC 3.4.24.15 pIC50

| compound | experimental.target | enzyme inhibition EC 3.4.24.15 pIC50 |
| --- | --- | --- |
| CCCCC(NC(=O)C(C)N(C)C(=O)CCP(=O)(O)CCCCc1ccccc1)C(=O)O (stereo not shown) | Thimet oligopeptidase EC 3.4.24.15 (UniProt P24155) | 6.2 |
| CCCCC(NC(=O)C(C)N(C)C(=O)CCP(=O)(O)CCc1ccc2ccccc2c1)C(=O)O (stereo not shown) | Thimet oligopeptidase EC 3.4.24.15 (UniProt P24155) | 7.0 |
| CCC(C)C(NC(=O)CCP(=O)(O)CCc1cccc2ccccc12)C(=O)NC(C(=O)O)C(C)C (stereo not shown) | Thimet oligopeptidase EC 3.4.24.15 (UniProt P24155) | 6.3 |
| CC(C)C(NC(=O)CCP(=O)(O)CCc1cccc2ccccc12)C(=O)NC(Cc1ccccc1)C(=O)O (stereo not shown) | Thimet oligopeptidase EC 3.4.24.15 (UniProt P24155) | 6.2 |
| CC(C)C(NC(=O)CCP(=O)(O)CCCCc1ccccc1)C(=O)NC(Cc1ccccc1)C(=O)O (stereo not shown) | Thimet oligopeptidase EC 3.4.24.15 (UniProt P24155) | 6.2 |

Ask: Please give the measured enzyme inhibition EC 3.4.24.15 pIC50 for this compound: CCCCC(NC(=O)C(NC(=O)CCP(=O)(O)CCc1cccc2ccccc12)C(C)C)C(=O)O (stereo not shown)
Reply: 6.5

Ask: Next entry: CCCCC(NC(=O)C(NC(=O)CCP(=O)(O)CCCCc1ccccc1)C(C)C)C(=O)O (stereo not shown)
Reply: 6.8
